This section presents compounds with their documented GI50 values.
System: SW-620
Experiment: NCI tumour cell line growth inhibition, 48 h
Active and inactive are the calls of the source. No stated cut-off is given here; in the data, active = GI50 up to about 1.1 µM and inactive = higher.

- NCCCN1c2ccccc2Sc2ccc(Cl)cc21: 2.9 µM (inactive)
- COc1cccc2c(=O)oc(-c3ccccc3C)nc12: 40.6 µM (inactive)
- Cc1ccc(S(=O)(=O)N/N=C2/C(=O)Nc3c(Cl)cc(Cl)cc32)cc1: 99.1 µM (inactive)
- O=C(O)CN(c1ccc(Cl)cc1)S(=O)(=O)c1ccccc1: > 100 µM (inactive)
- CC1=NC2(C(=O)O)C3(C(=O)O)N=C(C)OC3(C(F)(F)F)C2(C(F)(F)F)O1 (stereo unspecified): > 100 µM (inactive)

Could you now look at the following compound, please?
Challenge: What value of GI50 on SW-620 does "CC(C)(C)c1cc[n+](C[n+]2ccc(C(C)(C)C)cc2)cc1" have?
Response given: > 100 µM (inactive)
